molecular target: Peroxisome proliferator-activated receptor gamma (Homo sapiens); experiment: OT_PPARg_PPARgSRC1_1440: Odyssey Thera (OT) 24-hour Protein-Complementation Assay for Peroxisome Proliferator-activated Receptor Gamma/ SRC-1 Co-activator (AID 2283388);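 further: nuclear to cytoplasmic ratio of reconstituted Venus YFP fluorescence in fixed imaged cells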
Calls of active or inactive are those of the source. How the source made its calls: active means hit-call score of the fitted dose curve at least 0.9, where 1 is the maximum; inconclusive means response in the unintended direction; inactive means score below 0.9.
observable: outcome

| smiles.str | experimental.value |
| --- | --- |
| CCCCCC[C@@H](O)C/C=C\CCCCCCCC(=O)O | inactive |
| Cc1cc(O)cc(C)c1Cl | inactive |
| C[Si](C)(C)O[Si](C)(C)O[Si](C)(C)C | inactive |
| Cc1cccnc1 | inactive |

* * *

molecular target: Cellular tumor antigen p53 (Homo sapiens); assay: TOX21_p53_BLA_p3_ratio: Tox21 HCT-116 p53 Agonism Beta-lactamase Assay, Ratio, Phase 3 (AID 2283596)
Inconclusive results are not listed. Active and inactive are the calls of the source. The calls were made as follows: active = hit-call score of the fitted dose curve at least 0.9, where 1 is the maximum; inconclusive = response in the unintended direction; inactive = score below 0.9.
Labels: label 1 (active), label 0 (inactive)

| molecule | category |
| --- | --- |
| c1ccc2sc(SSc3nc4ccccc4s3)nc2c1 | label 0 |
| O=C(O)CCCCCCCCCCCBr | label 0 |
| Cc1cc(NS(=O)(=O)c2ccc(N)cc2)nc(C)n1 | label 0 |
| CC[N+](CC)(CC)CCC(O)(c1ccccc1)C1CCCCC1 (centres undefined) | label 0 |
| CCCCN1CCCC[C@H]1C(=O)Nc1c(C)cccc1C | label 0 |
| O=C(O)c1cc(O)c2c(c1)C(=O)c1cccc(O)c1C2=O | label 0 |
| CC(N)C(=O)OC(C)(C)Cc1ccc(Cl)cc1 (centres undefined) | label 0 |
| CC(=O)NCCCCCC(=O)O | label 0 |
| C[n+]1cc2c3c(ccc2c2ccc4cc5c(cc4c21)OCO5)OCO3 | label 1 |
| CCCCCCCC | label 0 |
| CCOC(=O)c1c(N)sc2c1CCN(Cc1ccccc1)C2 | label 0 |
| CCCC(=O)OC[C@@H](OC(=O)CCC)[C@@H](OC(=O)CCC)[C@H](Cn1c2nc(=O)[nH]c(=O)c-2nc2cc(C)c(C)cc21)OC(=O)CCC | label 0 |
| CC[C@H]1OC(=O)[C@H](C)C(=O)[C@H](C)[C@@H](O[C@@H]2O[C@H](C)C[C@H](N(C)C)[C@H]2O)[C@](C)(OC)C[C@@H](C)C(=O)[C@H](C)[C@H]2N(CCCCn3cnc(-c4cccnc4)c3)C(=O)O[C@]12C | label 0 |
| Nc1ncnc(Nc2ccccc2)n1 | label 0 |
| Cc1ccccc1S(=O)(=O)O | label 0 |
| CC(C)OC(=O)CCCCC(=O)OC(C)C | label 0 |
| Oc1ccc(Cl)c2cccnc12 | label 0 |
| Oc1ccc(N=Nc2ccccc2)cc1 | label 1 |
| CCOc1ccc2nc(N)sc2c1 | label 0 |
| COc1cc(C(=O)N2CCOCC2)cc(OC)c1OC | label 0 |
| CC(=O)NC(Cc1ccccc1)C(=O)O (centres undefined) | label 0 |
| Nc1ccc(F)cc1F | label 0 |
| CC1(C)S[C@@H]2[C@H](NC(=O)[C@H](N)c3ccc(O)cc3)C(=O)N2[C@H]1C(=O)O | label 0 |
| Nc1nnnn1-c1ccccc1 | label 0 |
| Cc1cc(C(C)(C)C)c(O)c(C)c1Cn1c(=O)n(Cc2c(C)cc(C(C)(C)C)c(O)c2C)c(=O)n(Cc2c(C)cc(C(C)(C)C)c(O)c2C)c1=O | label 1 |
| CCCCC(=O)O[C@H]1CC[C@H]2[C@@H]3CCc4cc(O)ccc4[C@H]3CC[C@]12C | label 0 |
| CCCCOC(=O)COc1ccc(Cl)cc1Cl | label 0 |
| CC[C@H]1OC(=O)[C@H](C)[C@@H](O[C@H]2C[C@@](C)(OC)[C@@H](O)[C@H](C)O2)[C@H](C)[C@@H](O[C@@H]2O[C@H](C)C[C@H](N(C)C)[C@H]2O)[C@](C)(OC)C[C@@H](C)C(=O)[C@H](C)[C@@H](O)[C@]1(C)O | label 0 |
| Brc1cc(Oc2cc(Br)c(Br)c(Br)c2Br)c(Br)c(Br)c1Br | label 0 |
| CC/C=C\CCCCCO | label 0 |
| CC[C@@H]([C@H](C)O)n1ncn(-c2ccc(N3CCN(c4ccc(OC[C@@H]5CO[C@@](Cn6cncn6)(c6ccc(F)cc6F)C5)cc4)CC3)cc2)c1=O | label 0 |
| NC(=O)c1ncn([C@@H]2O[C@H](CO)[C@@H](O)[C@H]2O)n1 | label 1 |
| COc1cc([C@@H]2c3cc4c(cc3C(O[C@@H]3O[C@@H]5COC(c6cccs6)O[C@H]5[C@H](O)[C@H]3O)C3COC(=O)[C@@H]32)OCO4)cc(OC)c1O (some centres undefined) | label 1 |
| CCCCCCCC/C=C\CCCCCCCC(=O)NCc1ccc(O)c(OC)c1 | label 0 |
| O=C(O)C(=O)Nc1cccc(-c2nn[nH]n2)c1 | label 0 |
| CC[C@H]1CN2CCc3cc(OC)c(OC)cc3[C@@H]2C[C@@H]1C[C@H]1NCCc2cc(OC)c(OC)cc21 | label 0 |
| CC(C)N=c1cc2n(-c3ccc(Cl)cc3)c3ccccc3nc-2cc1Nc1ccc(Cl)cc1 | label 0 |
| CCCCCCC | label 0 |
| CC1CCCNC1 (centres undefined) | label 0 |
| N[C@@H](Cc1cc(I)c(O)c(I)c1)C(=O)O | label 0 |
| O=S(=O)(O)c1ccc2nc(-c3ccccc3)[nH]c2c1 | label 0 |
| CNC(=O)c1ccccc1Sc1ccc2c(/C=C/c3ccccn3)n[nH]c2c1 | label 1 |
| COCCCN | label 0 |
| CC1(C)C[C@@H]1C(=O)N/C(=C\CCCCSC[C@H](N)C(=O)O)C(=O)O | label 0 |
